# METHOD_DESCRIPTION: amyloid nucleation score (Sup35N fusion, yeast selection) (log enrichment); library NNK3; higher = more nucleation; inactive = no reads after selection;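 note: zero at mode of non-aggregating sequences after 7 days selection at 30°C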
MEASURED_ENDPOINT: amyloid nucleation score

Answered examples (5):
SUBSTANCE	amyloid nucleation score
DCRWVCKFYPPVFNVIVEKV	inactive
PGKYGLV	inactive
SGLRASSSVMSCAYLTISWN	inactive
GKDSGDCTRIRLGV	1.2
LNKLTKIVVSHKGLCFELGG	inactive

query: Entry "IETPSGLRKIELFMTCYYTS" has what amyloid nucleation score?
result: 0.431

query: Please report the recorded amyloid nucleation score for "ISLFGIMWIRLLHLRHESKA" .
result: inactive

query: Bench note: what amyloid nucleation score did "CGVSLDRWSNMQ" show?
result: inactive

query: I am curious: what amyloid nucleation score value has been reported for "RRLLSKGVKIVRLISDEVYC" ?
result: inactive

query: I would be grateful if you could share the reported amyloid nucleation score for "QVRNSDRFSCIGSANIRKSL" .
result: inactive
